# Tested on: ERK5 (HA-ERK5 wt activated by EGFP-MEK5D, MEF2D-Gal4/Gal4-Luc reporter) in HEK293 cells
# protocolSummary: Dual-luciferase reporter assay (ERK5 reporter), reverse-transfected HEK293 cells
# testSettings: Homo sapiens, HEK293, read-out: ERK 5 Reporter Assay
Threshold check on IC50: strictly below 4 µM is yes (1); on or above 4 µM is no (0).

Examples with answers:
smilesRepr: O=C(Nc1cccnc1)c1cc(C(=O)c2c(F)cccc2C(F)(F)F)c[nH]1
assignedCategory: no (0)
--
smilesRepr: O=C(NC1CCOCC1)c1cc(C(=O)c2c(F)cccc2F)c[nH]1
assignedCategory: no (0)
--
smilesRepr: CN1CCC(NC(=O)c2cc(C(=O)c3c(F)cccc3Cl)c[nH]2)CC1
assignedCategory: yes (1)
--
smilesRepr: O=C(NC1CCNCC1)c1cc(C(=O)c2c(F)cccc2Cl)c[nH]1
assignedCategory: yes (1)
--
smilesRepr: CS(=O)(=O)N1CCC(NC(=O)c2cc(C(=O)c3c(Cl)ccc(Cl)c3F)c[nH]2)CC1
assignedCategory: yes (1)

Does the reported IC50 of the following compound sit strictly below 4 µM? "O=C(NC1CCNCC1)c1cc(C(=O)c2c(F)cccc2Br)c[nH]1"
no (0)

Does the reported IC50 of the following compound sit strictly below 4 µM? "COc1ccc(Cl)c(C(=O)c2c[nH]c(C(=O)Nc3cccnc3)c2)c1F"
yes (1)

Does the reported IC50 of the following compound sit strictly below 4 µM? "O=C(NC1CCNCC1)c1cc(C(=O)c2c(Cl)ccc(Cl)c2F)c[nH]1"
yes (1)

Does the reported IC50 of the following compound sit strictly below 4 µM? "CN1CCC(NC(=O)c2cc(C(=O)c3c(F)ccc(Cl)c3F)c[nH]2)CC1"
yes (1)

----------
The entries below are paired with their reported pIC50.
# tgt: ERK5 (Homo sapiens, UniProt Q13164)
# Construct: made in house
# Sequence (Q13164 whole entry): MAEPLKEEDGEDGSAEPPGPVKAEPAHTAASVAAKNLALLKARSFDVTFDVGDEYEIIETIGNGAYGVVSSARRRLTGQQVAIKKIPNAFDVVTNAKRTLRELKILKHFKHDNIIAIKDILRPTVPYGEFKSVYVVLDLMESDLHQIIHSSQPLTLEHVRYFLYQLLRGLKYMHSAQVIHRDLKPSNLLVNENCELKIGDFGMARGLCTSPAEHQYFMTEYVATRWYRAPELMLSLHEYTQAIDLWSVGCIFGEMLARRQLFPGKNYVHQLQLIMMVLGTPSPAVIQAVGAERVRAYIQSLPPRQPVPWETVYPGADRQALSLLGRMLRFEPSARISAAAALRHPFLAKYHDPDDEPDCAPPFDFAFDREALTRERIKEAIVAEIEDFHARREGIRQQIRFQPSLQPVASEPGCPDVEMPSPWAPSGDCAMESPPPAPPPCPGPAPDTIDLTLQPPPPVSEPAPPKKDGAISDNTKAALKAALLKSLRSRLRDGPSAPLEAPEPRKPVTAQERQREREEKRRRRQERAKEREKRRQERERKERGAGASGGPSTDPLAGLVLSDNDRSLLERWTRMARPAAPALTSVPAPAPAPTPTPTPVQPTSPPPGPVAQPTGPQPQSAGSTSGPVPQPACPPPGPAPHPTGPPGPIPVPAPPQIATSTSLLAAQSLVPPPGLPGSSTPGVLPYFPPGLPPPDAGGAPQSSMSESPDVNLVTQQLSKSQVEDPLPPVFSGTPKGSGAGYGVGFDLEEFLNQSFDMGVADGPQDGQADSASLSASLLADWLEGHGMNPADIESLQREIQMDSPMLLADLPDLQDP
# protocolSummary: ERK5 IMAP assay (fluorescence polarisation)
# Type: biochemical
# testSettings: average (e.g. geometric mean) where more than one data point; read-out: ERK5 IC50
Schema: pIC50 number; meaning minus log10 of the concentration expressed in molar units.

Record summary for "CCN1CCC(NC(=O)c2cc(C(=O)c3c(F)cccc3Cl)c[nH]2)CC1" : reported pIC50 = 6.36

Record summary for "O=C(Nc1cncnc1)c1cc(C(=O)c2c(F)ccc(Cl)c2F)c[nH]1" : reported pIC50 = 6.65

----------
The entries below are paired with their reported IC50.
# tgt: ERK5 (Homo sapiens)
# Construct: made in house
# protocolSummary: ERK5 IMAP assay (fluorescence polarisation)
# Assay type: biochemical
# testSettings: average (e.g. geometric mean) where more than one data point; read-out: ERK5 IC50
Entry rule: numbers only, all in nM.

Example entries and their recorded answers appear below.
compound: O=C(Nc1cccnc1)c1cc(C(=O)c2c(Cl)ccc(OC3CCOC3)c2F)c[nH]1 (centres unmarked)
IC50 / nM: 483

compound: O=C(Nc1cnc(NCCN2CCOCC2)nc1)c1cc(C(=O)c2c(Cl)ccc(Cl)c2F)c[nH]1
IC50 / nM: 36.8

compound: O=C(Nc1cnc(N2CCCC2)nc1)c1cc(C(=O)c2c(F)cccc2Cl)c[nH]1
IC50 / nM: 4110

compound: O=C(NC1CCOCC1)c1cc(C(=O)c2c(F)cccc2Cl)c[nH]1
IC50 / nM: 845

Please turn your attention to the following entry.
// IC50 (ERK5 (Homo sapiens)) for "O=C(Nc1cnc(NCCN2CCCCC2)nc1)c1cc(C(=O)c2c(Cl)ccc(Cl)c2F)c[nH]1" = 10.4
